This listing pairs variants with measured yeast fitness.
B1: tRNA (parent)
chain: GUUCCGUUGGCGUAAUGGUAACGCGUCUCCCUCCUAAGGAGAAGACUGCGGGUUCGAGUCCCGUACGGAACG

Variants of: B1
Test: yeast fitness relative to wild type (ratio to wild type); higher = fitter; tRNA-Arg(CCU), competitive growth, 37 C, YPD
Variants at the floor of the assay were thinned out.
API doc: respond with a numeric literal and nothing else, no unit.

These solved cases illustrate the format of a correct answer.
U8C G18A A45U G67C : 0.552
U8C A45C C46U : 0.716
C29G C30U : 0.632

Input line: Endpoint output: yeast fitness of A15U U16A . Value?
Output line: 0.705

Input line: Would you mind doing U3C G6C C46A as well?
Output line: 0.645

Input line: Would you mind doing G6A U26A C33A G51C C62U as well?
Output line: 0.591

Input line: Would you mind doing U26G A37G G51C as well?
Output line: 0.801

Input line: Would you mind doing C30G U47C as well?
Output line: 0.701

Input line: Would you mind doing U2C C11U U59A as well?
Output line: 0.586

Input line: Would you mind doing A14U G25A A42G C66G as well?
Output line: 0.767

Input line: Would you mind doing A15C G41A G48C as well?
Output line: 0.568

Value source: the RNAGym collection of RNA variant scans (doi:10.1126/science.aae0568)
